Assay: Inhibition of HIV integrase strand transfer activity expressed in Escherichia coli
Parameters: species or system Human immunodeficiency virus
measurement_type: pIC50
Please treat pIC50 as minus the base-10 logarithm of the molar concentration.

Report pIC50 for `CC(C)c1c(Cc2ccc(F)cc2)n(COCc2ccc(F)cc2)c(=O)n(O)c1=O` please. 5.26

Which pIC50 is listed for `CCOCn1c(Cc2ccccc2)c(C(C)C)c(=O)n(O)c1=O` ? 4.07

What value of pIC50 has been reported for the following molecule? `CC(C)c1c(Cc2ccc(F)cc2)n(COCc2ccccc2)c(=O)n(O)c1=O` 5.14

Recorded pIC50 of `CC(C)c1c(Cc2ccccc2)n(COCc2ccc(F)cc2)c(=O)n(O)c1=O` , please. 5.46

Quick one: pIC50 for `CCOCn1c(Cc2ccc(F)cc2)c(C(C)C)c(=O)n(O)c1=O` ? 3.98

Fill in: pIC50 of `CC(C)c1c(Cc2ccccc2)n(COCc2ccccc2)c(=O)n(O)c1=O` is ___ 4.68

If you can, please state the reported pIC50 value of `CCc1c(Cc2ccccc2)n(COCc2ccccc2)c(=O)n(O)c1=O` . 5.09
